# maps each entry to its GI50
tested on: T47D; experiment: NCI tumour cell line growth inhibition, 48 h
Calls of active or inactive are those of the source. Rule as the data show it: active = GI50 up to about 1.1 µM and inactive = higher.

{"columns": ["compound", "observed property", "result"],
 "data": [
  ["CN(C)CCCSc1nc2c(c(=N)n1-c1ccccc1)c(=S)n(-c1ccccc1)c(=S)n2-c1ccccc1", "GI50", "2.01 µM (inactive)"]
]}

Item Cc1cc(Cl)cc2c1NC(=O)C2(O)CC(=O)c1ccco1 (centres undefined) has what recorded GI50?
> 100 µM (inactive)

Fill blank: measured GI50 of the compound COC(=O)/C(=N\NC(N)=O)C(C(=O)C(=O)Nc1ccccc1OC)c1nc2ccc([N+](=O)[O-])cc2nc1O (centres undefined) is ____.
> 100 µM (inactive)

Entry under review: O=C(CCN1CCCCC1)Nc1ccc2sc3ccccc3c(=O)c2n1 . Reported GI50?
28.4 µM (inactive)

* * *

system: HOP-62; assay: NCI tumour cell line growth inhibition, 48 h
Active and inactive are the calls of the source. Cut-off read from the data, not from the text of the source: active = GI50 up to about 1.1 µM and inactive = higher.
observed property: GI50

{"columns": ["compound", "target system", "GI50"],
 "data": [
  ["COC(=O)C1=C(C)C(=O)[C@]23C(CCCC[C@H]12)C(=O)[C@H](C(=O)OC)C3C (stereo not given in full)", "HOP-62", "> 100 µM (inactive)"],
  ["CN(C)/C=N/c1nc2ncn(CCOC(=O)c3ccccc3)c2c(=O)[nH]1", "HOP-62", "> 100 µM (inactive)"],
  ["COc1cc2c(c(O)c1OC)C(=O)[C@@H]1CCC(=O)N1C2c1ccccc1 (stereo not given in full)", "HOP-62", "> 100 µM (inactive)"],
  ["O=C1c2ccccc2C(=O)c2[nH]c(Cc3ccccc3F)nc21", "HOP-62", "86.7 µM (inactive)"],
  ["CCC(=O)Nc1ccc(NC(C#N)c2cccc(Oc3ccccc3)c2)cc1 (stereo not given)", "HOP-62", "49.7 µM (inactive)"]
]}

Name the reported GI50 value associated with the compound Nc1sc2c(c1C(=O)c1ccc(Cl)c(Cl)c1)CCCC2
83.6 µM (inactive)

# GI50 lookup, item C=CCO/N=C(\OC(=O)c1ccc([N+](=O)[O-])cc1)c1ccccc1
> 100 µM (inactive)

For the compound NC(CCC(=O)NC(CSSCCCCS(=O)O)C(=O)NCC(=O)O)C(=O)O (stereo not given) , what GI50 is on record?
> 100 µM (inactive)

Param item = Cc1nn(C(=O)c2ccccc2O)c2c1C(c1ccco1)SC(=N)N2 (stereo not given) ; retrieve measured GI50.
2.58 µM (inactive)

// query GI50 value for entry C=C(Cl)c1c(OC)cccc1OCc1ccccc1
> 100 µM (inactive)

Value lookup for GI50; key = C/C(=N\Nc1ccc([N+](=O)[O-])cc1)C(=O)N(C)Nc1ccccc1
> 100 µM (inactive)

I have this compound here, c1ccc(C[P+]2(c3ccccc3)c3ccccc3-c3ccccc32)cc1 , and I need its recorded GI50.
> 100 µM (inactive)

For the compound shown here, Nc1ncnc2c1ncn2CCCNO , give the reported GI50.
> 100 µM (inactive)

Which measured GI50 value corresponds to Nc1ccc(Oc2ccc(C34CC5CC(C3)CC(c3ccc(Oc6ccc(N)c(O)c6)cc3)(C5)C4)cc2)cc1O ?
3.47 µM (inactive)

For Cc1nc(O)nc2nc3ccc(Cl)cc3c(NCCNCCO)c12 , what is its reported GI50?
8.05 µM (inactive)

* * *

tested on: KM-20L2; test: NCI tumour cell line growth inhibition, 48 h
Active and inactive are the calls of the source. Cut-off read from the data, not from the text of the source: active = GI50 up to about 1.1 µM and inactive = higher.
The reply should be one of these categories: active, inactive

Identify the outcome logged in this assay for the compound shown: CCOC(=O)C(C)(C)Oc1ccc2c(=O)cc(-c3ccccc3)oc2c1
inactive

* * *

system: MDA-MB-231; assay: NCI tumour cell line growth inhibition, 48 h
The source made the active and inactive calls. No stated cut-off is given here; in the data, active = GI50 up to about 1.1 µM and inactive = higher.
Catalogue of GI50 readings, one per entry.

# get_value(readout='GI50', item= COc1ccccc1C1ON=C(c2ccc([N+](=O)[O-])cc2)N1C12CC3CC(CC(C3)C1)C2 (centres undefined) )
> 100 µM (inactive)

// query GI50 value for entry CCOC(=O)c1c(NS(=O)(=O)c2ccc(Br)cc2)sc2c1CCCC2
7.29 µM (inactive)

Return reported GI50; argument: OC1CCC(COC(c2ccccc2)(c2ccccc2)c2ccccc2)O1 (centres undefined)
16.6 µM (inactive)

// lookup GI50 for Cc1ncn(-c2ccccc2O)c1C
> 100 µM (inactive)

* * *

The following compounds are listed with their measured GI50 values.
system: XF498; experiment: NCI tumour cell line growth inhibition, 48 h
Activity calls are given as the source filed them. Rule as the data show it: active = GI50 up to about 1.1 µM and inactive = higher. Non-standard residues stand in square brackets, D forms with d. Residues, ends and D or L forms follow the SMILES beside them. *: point of attachment. NMeF = CN[CH](Cc1ccccc1)C(=O)O; NMeV = CN[CH](C(=O)O)C(C)C; Boc = CC(C)(C)OC(=O)*

Which GI50 reading was recorded for the compound CCCO/N=[N+](\[O-])N(CC)CC ?
> 100 µM (inactive)

Bench note: what GI50 did CN(C)CCCNC(=O)c1cccc2ccccc12 show?
> 100 µM (inactive)

What value of GI50 has been reported for the following compound? COC(=O)C1=CC2OC1(C)C1(CC1)C2=O (stereo not given)
14.7 µM (inactive)

Look up GI50: CC1CC2C3CC(F)C4=CC(=O)C=CC4(C)C3(F)C(O)CC2(C)C1(O)C(=O)CO (stereo not given)
> 100 µM (inactive)

Request the reported GI50 associated with CCOC(=O)C1N(S(=O)(=O)c2ccc(C)cc2)CCC12c1ccccc1N(C(C)=O)C2C(/C=C/C(=O)OC)=C/C(=O)OC (stereo not given)
> 100 µM (inactive)

Entry under review: CC(C)C(NC(=O)OC(C)(C)C)C(=O)N(C)C(Cc1ccccc1)C(=O)N(C)C(C(=O)N(C)C(C(=O)O)C(C)C)C(C)C (stereo not given) (Boc-V[NMeF][NMeV][NMeV]-OH; configuration not given here) . Reported GI50?
> 100 µM (inactive)

Tell me the measured GI50 of O=C(CN(c1ccccc1)c1ccccc1)N1c2ccccc2C2C=CC=CC21 (stereo not given) , please.
19.6 µM (inactive)

# GI50 lookup, item COc1ccc2[nH]c3c(C)cc([N+](=O)[O-])c(C)c3c2c1
34.2 µM (inactive)

Form field: reported GI50 of CC12CCC3=C(CSC4=C3CSc3ccccc34)C1=CCCC2=O (stereo not given)
19.7 µM (inactive)

State the recorded GI50 for this entry: COc1cc2c(oc(=O)c3cc4ccoc4c(OC)c32)c2cccc(O)c12
> 100 µM (inactive)

Would you mind telling me what GI50 value was observed for O=C1c2ccccc2C(=O)c2[nH]c(Cc3ccccc3F)nc21 ?
53.1 µM (inactive)

I am curious: what GI50 value has been reported for CC12CCC[C@@](C)(C(=O)OC3OC(CO)C(O)C(O)C3O)[C@H]1CCC13CC4CC(OC4(CO)[C@H]1O)[C@@H]23 (stereo not given in full) ?
> 100 µM (inactive)

// returns reported GI50 for input COc1ccc2ccccc2c1C1=NC(C)(C)CO1
> 100 µM (inactive)

// query GI50 value for entry Cc1cc(Cl)cc2c1NC(=O)C2(O)CC(=O)c1ccco1 (stereo not given)
> 100 µM (inactive)

Which GI50 is listed for COc1cc2c3c(c1OC)C1(C=CC(=O)C=C1)CC3N(C(=O)OC(C)(C)C(Cl)(Cl)Cl)CC2 (stereo not given) ?
8.69 µM (inactive)

* * *

test system: OVCAR-3; test: NCI tumour cell line growth inhibition, 48 h
The source made the active and inactive calls. Rule as the data show it: active = GI50 up to about 1.1 µM and inactive = higher.
Reported GI50 values for the following molecules.

Examples with their reported GI50 follow.
{"columns": ["molecule", "observed property", "result"],
 "data": [
  ["OCC(O)C(Cl)CCl (stereo unspecified)", "GI50", "> 100 µM (inactive)"],
  ["COC(=O)c1ccc(/C=C/C2=CC(=O)C=CC2=O)cc1", "GI50", "9.73 µM (inactive)"],
  ["O=C(O)c1ccc(NC(=O)C2C(=O)C(=O)N(c3ccc(C(=O)O)cc3)C2=O)cc1 (stereo unspecified)", "GI50", "> 100 µM (inactive)"],
  ["CN1CCN(CCCCN2c3ccccc3Sc3ccc(N=[N+]=[N-])cc32)CC1", "GI50", "8.07 µM (inactive)"],
  ["O=C(O)CSc1nnc(COc2ccccc2)n1-c1ccccc1", "GI50", "> 100 µM (inactive)"],
  ["CCOC(=O)c1nnsc1NC(=O)Nc1ccc(Cl)cc1", "GI50", "43.2 µM (inactive)"]
]}

Suppose we examine the molecule Cc1ccc(S(=O)(=O)NC2=NS(=O)(=O)c3cc(C)c(Cl)cc3S2)cc1 ; what GI50 value has been reported?
> 100 µM (inactive)

Which GI50 is reported for this molecule? CC(=O)NC1=C(NCCC(C)C)C(=O)c2ccccc2C1=O
> 50 µM (inactive)

Look up GI50 for this molecule: CCOC(=O)[C@@]12C[C@](/C=C/OC)(O[Si](C)(C)C)[C@@]13c1cc(OC)c(OC)cc1CCN3C(=O)C2O (stereo partly specified)
> 100 µM (inactive)

Please look up its GI50: COc1ccccc1C1ON=C(c2ccc([N+](=O)[O-])cc2)N1C12CC3CC(CC(C3)C1)C2 (stereo unspecified)
> 100 µM (inactive)

Request the reported GI50 associated with Cc1nnc(N/N=C2/C(=O)Nc3c(Cl)cc(Cl)cc32)n1N
> 100 µM (inactive)

Would you mind telling me what GI50 value was observed for O=C1CC(c2ccc(Cl)cc2)=Nc2ccccc2N1 ?
84.9 µM (inactive)

Item under review: COC(=O)c1c(C)nc(C)c(N=O)c1-c1ccccc1C(F)(F)F . Reported GI50?
17.3 µM (inactive)

Would you mind telling me what GI50 value was observed for O=C(c1ccco1)N(Cc1cccnc1)C(=S)N(Cc1cccnc1)C(=O)c1ccco1 ?
6.35 µM (inactive)

Using the record for CCOC(=O)NC(Nc1ccc(C(=O)OCC)cc1)(C(F)(F)F)C(F)(F)F , report its GI50.
> 100 µM (inactive)

May I ask what GI50 has been recorded for O=C(Nc1ccccc1)c1cc(S(=O)(=O)n2ccnc2O)c(S)cc1Cl ?
> 100 µM (inactive)

All figures here come from ChEMBL document CHEMBL1201862.
